Assay: in vivo pharmacokinetic studies in mice (plasma, LC-MS)
Design: species or system mouse
Details: mouse, plasma; oral administration in mice, 20 mg kg^−1
observable: AUC

[Q] Tell me measured AUC for O=C(NCCN1CCOCC1)c1ccc2c(c1)C(=O)c1ccc(Nc3ccc(F)c(NC(=O)c4ccccc4)c3)cc1CC2 please.
[A] 27.6 µM·h

Now for a further molecule.
[Q] Given the molecule CNC(=O)c1ccc2c(c1)C(=O)c1ccc(Nc3ccc(F)c(NC(=O)C4CC4)c3)cc1CC2 , write its reported AUC.
[A] 121 µM·h

###

Assay: cell viability in healthy human colon organoids SCC311
Type: cell-based
Settings: female, human, healthy human colon organoids SCC311, 2015 0,25 µM; ED Fig. 10f; replicates
observable: viability at 25 µM (%)
Output spec: scalar in %, unitless text.

[Q] Assign viability at 25 µM to the following record: CNC(=O)c1ccc2c(c1)C(=O)c1ccc(Nc3ccc(F)c(NC(=O)C4CC4)c3)cc1CC2 [Compound 2015]
[A] 113

###

Tested on: COLO 205
Experiment: cell viability in human CRC cell line COLO 205
Format: cell-based
Conditions: Homo sapiens, 96 h; COLO 205, 4 d of treatment
Excerpt: To generate KAP^2D cells, KAP organoids were isolated from Matrigel, fragmented by mechanical dissociation and plated without any extracellular matrix on common cell culture dishes. Phoenix-Eco packaging cells (CRL-3214), HCT-15 (CCL-225), HCT 116 (CCL-247), COLO 205 (CCL-222), LS 174T (CL-188), RKO (CRL-2577) and HT-29 (HTB-38) were obtained from the American Type Culture Collection. […]
observable: IC50 (µM)
Give the value, in units of µM, as a plain number.

[Q] Determine reported IC50 for CNC(=O)c1ccc2c(c1)C(=O)c1ccc(Nc3ccc(F)c(NC(=O)C4CC4)c3)cc1CC2 ; test system: COLO 205.
[A] 0.151

###

Test: in vivo pharmacokinetic studies in mice (plasma, LC-MS)
Parameters: species or system mouse
Details: mouse, plasma, oral, 20 mg kg^−1, 1440 min of treatment; individual animals
Procedure: No mice were excluded during treatment studies. […] GFP imaging of tumors was performed using a Hamamatsu imaging system. For quantification of compounds in the murine plasma, 20 μl of tail-vein blood was diluted with 80 μl of heparin solution, before 200 μl of ice-cold acetonitrile with a defined internal standard was added. The samples were sonicated and centrifuged and the supernatant was subjected to liquid chromatography-mass spectrometry quantification. […]
observable: concentration at 1440 min (nM)
API: value field is a number in nM; no unit string.

[Q] Give concentration at 1440 min for the following compound: O=C(NCCN1CCOCC1)c1ccc2c(c1)C(=O)c1ccc(Nc3ccc(F)c(NC(=O)c4ccccc4)c3)cc1CC2 [Compound 1639]
[A] 0

###

Tested on: RKO
Experiment: cell viability in human CRC cell line RKO
Type: cell-based
Settings: Homo sapiens, 96 h; RKO, 4 d of treatment
observable: IC50
Units required after the number.

[Q] Consider the molecule CNC(=O)c1ccc2c(c1)C(=O)c1ccc(Nc3ccc(F)c(NC(=O)C4CC4)c3)cc1CC2 [Compound 2015] . State its measured IC50.
[A] 207 nM

###

Assay: cell viability in healthy human colon organoids SCC321
Type: cell-based
Settings: male, human, healthy human colon organoids SCC321, 2015 0, ED Fig. 10g; replicates
observable: viability at 5 µM

[Q] Identify the reported viability at 5 µM for the following entry. CNC(=O)c1ccc2c(c1)C(=O)c1ccc(Nc3ccc(F)c(NC(=O)C4CC4)c3)cc1CC2 [Compound 2015]
[A] 109%
